Taken from patent US20220185898A1.

- testedTarget: T1, mouse Sortilin Fc fusion protein (mouse; human, UniProt Q6PHU5 74-754)
- T1 construct: whole entry named; also called mSort-Fc
- protocolSummary: ForteBio, avid;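 note: whole IgG captured on AHQ sensors, then contacted with Sortilin Fc fusion antigen at 100 nM, followed by an off-rate phase in buffer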
readoutName: Kd (nM)
Field: numeric (nM). Do not append units.

Completed entries (count: 2):
Qu. Recorded Kd of S-64 (antibody, V domains shown, IgG) VH: QVQLQESGPGLVKPSETLSLTCAVSGYSISSGYYWGWIRQPPGKGLEWIGSIYHSGSTYYNPSLKSRVTISVDTSKNQFSLKLSSVTAADTAVYYCARAEHRGPRYFDLWGRGTLVTVSS VL: DIQMTQSPSSLSASVGDRVTITCRASQSINSYLNWYQQKPGKAPKLLIYAASSLQSGVPSRFSGSGSGTDFTLTISSLQPEDFATYYCQQLDSTPITFGGGTKVEIK , please.
Ans. 24.2

Qu. Recorded Kd of S-55 (antibody, V domains shown, IgG) VH: QVQLQESGPGLVKPSETLSLTCAVSGYSISSGYYWGWIRQPPGKGLEWIGSIYHSGSTYYNPSLKSRVTISVDTSKNQFSLKLSSVTAADTAVYYCARGRPELGWDKYFQHWGQGTLVTVSS VL: DIQMTQSPSSVSASVGDRVTITCRASQGISRWLAWYQQKPGKAPKLLIYAASSLQSGVPSRFSGSGSGTDFTLTISSLQPEDFATYYCQQANALPTFGGGTKVEIK , please.
Ans. 1.13

Next binder, please.
Qu. Recorded Kd of S-48 (antibody, V domains shown, IgG) VH: QVQLVESGGGVVQPGRSLRLSCAASGFTFSSYGMHWVRQAPGKGLEWVAVISYDGSNKYYADSVKGRFTISRDNSKNTLYLQMNSLRAEDTAVYYCARESGDRATLVYYYYYGMDVWGQGTTVTVSS VL: EIVMTQSPATLSVSPGERATLSCRASQSVSSNLAWYQQKPGQAPRLLIYSASTRATGIPARFSGSGSGTEFTLTISSLQSEDFAVYYCQQYNSWPITFGGGTKVEIK , please.
Ans. 1.53
